# Lookup of reported pIC50 keyed by entry
target.of.assay: human MMP-9 (amino acids 107-446) (Homo sapiens, UniProt P14780)
Construct: human MMP-9 (amino acids 107-446); made in house
Sequence (P14780 107-446): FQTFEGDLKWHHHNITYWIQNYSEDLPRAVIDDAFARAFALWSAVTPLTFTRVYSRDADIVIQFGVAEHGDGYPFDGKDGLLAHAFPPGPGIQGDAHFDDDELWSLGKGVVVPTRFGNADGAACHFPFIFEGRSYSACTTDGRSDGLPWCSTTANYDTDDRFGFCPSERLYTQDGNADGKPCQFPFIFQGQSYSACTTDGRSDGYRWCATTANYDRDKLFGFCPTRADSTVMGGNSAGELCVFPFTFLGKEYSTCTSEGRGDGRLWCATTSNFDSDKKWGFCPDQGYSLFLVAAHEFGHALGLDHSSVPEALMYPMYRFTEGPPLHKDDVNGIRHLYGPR
test.method.notes: MMP dose response assay for determining IC50, MMP-9
Assay type: biochemical
experimental.setup: recombinant enzyme, fluorescent-quench substrate 100 nM; read-out: MMP-9
pIC50: −log10 of the molar value.
measurement.name: pIC50

CS(=O)(=O)N(C[C@@H](C(=O)NO)N1CCNC(=O)C1)c1ccc(Oc2ccc(C(F)(F)F)cc2)cc1 [Example 87]
8.10
CS(=O)(=O)N(C[C@@H](C(=O)NO)N1CCOCC1)c1ccc(Oc2ccc(Cl)cc2)cc1 [Example 89]
8.70
Cc1ccc(Oc2ccc(N(C[C@@H](C(=O)NO)N3C[C@@H](C)O[C@@H](C)C3)S(C)(=O)=O)cc2)cc1 [Example 100]
9.17
COC[C@@H]1CCCN1[C@@H](CN(c1ccc(Oc2ccc(C(F)(F)F)cc2)cc1)S(C)(=O)=O)C(=O)NO [Example 82]
8.14
Cc1ccc(Oc2ccc(N(C[C@H](NCc3ccncc3)C(=O)NO)S(C)(=O)=O)cc2)cc1 [Example 33]
8.75
Cc1ccc(Oc2ccc(N(C[C@H](Nc3ccc(F)c(F)c3)C(=O)NO)S(C)(=O)=O)cc2)cc1 [Example 41]
8.59
CN(C)[C@H]1CCN([C@@H](CN(c2ccc(Oc3ccc(C(F)(F)F)cc3)cc2)S(C)(=O)=O)C(=O)NO)C1 [Example 74]
8.41

---

# Lookup of reported pIC50 keyed by entry
target.of.assay: human MMP-3 (amino acids 100-265) (Homo sapiens, UniProt P08254)
Construct: human MMP-3 (amino acids 100-265)
Sequence (P08254 100-265): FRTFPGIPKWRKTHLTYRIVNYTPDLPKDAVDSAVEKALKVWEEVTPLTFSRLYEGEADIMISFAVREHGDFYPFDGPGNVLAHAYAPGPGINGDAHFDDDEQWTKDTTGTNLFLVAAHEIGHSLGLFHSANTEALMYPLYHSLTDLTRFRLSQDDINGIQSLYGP
test.method.notes: MMP dose response assay for determining IC50, MMP-3
experimental.setup: recombinant enzyme, fluorescent-quench substrate 100 nM
pIC50: −log10 of the molar value.
measurement.name: pIC50

Cc1ccc(Oc2ccc(N(C[C@@H](C(=O)NO)N3CCOCC3)S(C)(=O)=O)cc2)cc1 [Example 27]
6.86
CC(C)N(C)[C@@H](CN(c1ccc(Oc2ccc(C(F)(F)F)cc2)cc1)S(C)(=O)=O)C(=O)NO [Example 97]
6.66
Cc1ccc(Oc2ccc(N(C[C@H](NCCc3c[nH]c4ccccc34)C(=O)NO)S(C)(=O)=O)cc2)cc1 [Example 66]
6.09
Cc1ccc(Oc2ccc(N(C[C@@H](C(=O)NO)N3CCC(O)(c4ccc(Br)cc4)CC3)S(C)(=O)=O)cc2)cc1 [Example 65]
6.31

---

target.of.assay: human MMP-2 (amino acids 1-660) (Homo sapiens)
Construct: human MMP-2 (amino acids 1-660); made in house
Sequence (P08253 110-660): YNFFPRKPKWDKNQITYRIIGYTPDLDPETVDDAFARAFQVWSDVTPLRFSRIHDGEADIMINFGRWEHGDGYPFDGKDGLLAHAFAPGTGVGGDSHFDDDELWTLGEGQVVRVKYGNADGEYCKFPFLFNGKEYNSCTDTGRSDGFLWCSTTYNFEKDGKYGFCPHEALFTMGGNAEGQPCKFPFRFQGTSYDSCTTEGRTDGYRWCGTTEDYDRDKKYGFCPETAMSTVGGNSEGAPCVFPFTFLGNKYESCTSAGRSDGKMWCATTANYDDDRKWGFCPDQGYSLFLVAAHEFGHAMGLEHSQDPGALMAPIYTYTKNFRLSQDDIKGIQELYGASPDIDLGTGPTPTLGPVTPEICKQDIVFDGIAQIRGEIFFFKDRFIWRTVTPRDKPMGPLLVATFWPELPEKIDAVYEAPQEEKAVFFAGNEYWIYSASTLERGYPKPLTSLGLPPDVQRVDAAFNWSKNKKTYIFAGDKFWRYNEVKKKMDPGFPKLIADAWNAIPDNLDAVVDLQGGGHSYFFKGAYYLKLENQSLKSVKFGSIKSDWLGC
test.method.notes: MMP dose response assay for determining IC50, MMP-2
Format: biochemical
experimental.setup: recombinant enzyme, fluorescent-quench substrate 100 nM; read-out: MMP-2
measurement.name: IC50 (µM)

CC(C)N1CCN([C@@H](CN(c2ccc(Oc3ccc(Cl)cc3)cc2)S(C)(=O)=O)C(=O)NO)CC1 [Example 91]
0.00877
Cc1ccc(Oc2ccc(N(C[C@H](Nc3ccc(Cl)cc3)C(=O)NO)S(C)(=O)=O)cc2)cc1 [Example 43]
0.336
Cc1ccc(Oc2ccc(N(C[C@H](NCc3ccccn3)C(=O)NO)S(C)(=O)=O)cc2)cc1 [Example 34]
0.0834
Cc1ccc(Oc2ccc(N(C[C@H](NCC(C)C)C(=O)NO)S(C)(=O)=O)cc2)cc1 [Example 36]
0.0114
CS(=O)(=O)N(C[C@@H](C(=O)NO)N1CCNC(=O)C1)c1ccc(Oc2ccc(C(F)(F)F)cc2)cc1 [Example 87]
0.0198
Cc1ccc(Oc2ccc(N(C[C@H](Nc3ccc(F)c(F)c3)C(=O)NO)S(C)(=O)=O)cc2)cc1 [Example 41]
0.127
CC(C)O[C@@H](CN(c1ccc(Oc2ccc(C(F)(F)F)cc2)cc1)S(C)(=O)=O)C(=O)NO [Example 99]
0.0503

# credit: patent US20080085893A1
